Target: NADPH oxidase 4 (Homo sapiens) (UniProt Q9NPH5)
Sequence (Q9NPH5 whole entry, looked up): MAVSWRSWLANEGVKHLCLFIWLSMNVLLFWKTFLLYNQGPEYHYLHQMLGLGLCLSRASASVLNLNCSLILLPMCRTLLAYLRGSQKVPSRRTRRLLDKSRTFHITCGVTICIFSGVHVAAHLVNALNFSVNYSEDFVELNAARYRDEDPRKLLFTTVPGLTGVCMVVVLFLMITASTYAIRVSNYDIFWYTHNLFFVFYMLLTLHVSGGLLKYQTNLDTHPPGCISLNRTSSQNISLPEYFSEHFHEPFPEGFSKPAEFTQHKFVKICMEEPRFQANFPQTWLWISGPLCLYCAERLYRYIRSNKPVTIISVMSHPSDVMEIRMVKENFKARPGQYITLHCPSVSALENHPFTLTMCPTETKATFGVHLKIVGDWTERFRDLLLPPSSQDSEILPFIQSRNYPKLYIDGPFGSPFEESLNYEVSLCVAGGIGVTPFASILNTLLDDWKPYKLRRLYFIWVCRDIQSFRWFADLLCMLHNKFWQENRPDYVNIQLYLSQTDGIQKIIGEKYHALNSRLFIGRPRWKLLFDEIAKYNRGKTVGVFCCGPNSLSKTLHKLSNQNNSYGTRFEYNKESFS
Assay: compounds shifting NOX4 Amplex Red fluorescence – cell-based, HEK293-NOX4, tetracycline-induced, NOX inhibitor project, primary screen (AID 1160)
Settings: HEK293-NOX4, Amplex Red H2O2 fluorescence, 45 min; higher = more signal, called active from +8 up or from −8 down
Could you please report measured z-score for the items listed next?
Respond numerically, and do not add a unit to the figure.

stdin: Could you tell me which z-score is on file for "O[C@@H](Cc1ccccc1)[C@@H](/C=C/c1ccccc1)NCc1ccccc1Br" ?
stdout: 0.272

stdin: Could you tell me which z-score is on file for "COc1ccc([Si](C)(C)[C@H]2[C@H](CC(=O)N3Cc4ccccc4C[C@H]3CO)O[C@@]3(C(=O)N(Cc4cccc(I)c4)c4ccccc43)[C@@H]2C)cc1" ?
stdout: -0.348

stdin: Could you tell me which z-score is on file for "C=C[C@@H](C)[C@@H](OC(=O)Nc1ccc(OC)cc1)c1ccc(O)c2ccccc12" ?
stdout: -1.81

stdin: Could you tell me which z-score is on file for "COCCOC(=O)N1C(=O)[C@@]2(c3cc(C#CC4=CCCCC4)ccc31)[C@H](C(=O)N1CCN(c3ncccn3)CC1)[C@H]1C(=O)O[C@H](c3ccccc3)[C@H](c3ccccc3)N1[C@@H]2c1ccc(OCCO)cc1" ?
stdout: 0.645

stdin: Could you tell me which z-score is on file for "CCCNC(=O)[C@@]1(c2ccc([N+](=O)[O-])cc2)CC(=O)N(CC23CC4CC(CC(C4)C2)C3)[C@@H]1c1ccc(CO)cc1I" ?
stdout: -0.037

stdin: Could you tell me which z-score is on file for "CCCNC(=O)[C@@]1(C)c2ccccc2C(=O)N(Cc2ccc(OC(F)(F)F)cc2)[C@H]1c1ccc(CO)cc1" ?
stdout: 0.332

stdin: Could you tell me which z-score is on file for "[N-]=[N+]=NCc1ccccc1[C@@H]1OC(c2ccc(OCCCO)cc2)=N[C@]1(Cc1ccccc1)C(=O)O" ?
stdout: 1.1
